For each entry below, report its MIC value.
System: Pseudomonas aeruginosa NCTC 10701
PROCEDURE_TEXT: In-vitro test, inhibitory concentration by dilution series
Assay type: cell-based
TEST_CONDITIONS: NCTC10701; IV = Pseudomonas aeruginosa NCTC 10701; step = concentration with no visible growth; read-out: Hemmkonzentration nach Verdünnung (Verdünnungsreihe) (converted)
Form entry: value (µM) — number only.

Prompt: Output MIC of CCOC(=O)Oc1c(C(=O)N[C@@H](C(=O)N[C@@H]2C(=O)N3[C@@H]2SC(C)(C)[C@@H]3C(=O)O)c2ccccc2)cnc2cc(COc3ccc(C)cc3)c(CC)cc12 [Beisp. 3]
Response: 3.12

Prompt: Output MIC of CCCCOCc1cc2ncc(C(=O)N[C@@H](C(=O)N[C@@H]3C(=O)N4[C@@H]3SC(C)(C)[C@@H]4C(=O)O)c3ccccc3)c(OC(=O)OCC)c2cc1CC [Beisp. 4]
Response: 1.56

Prompt: Output MIC of CCc1cc2c(OC(=O)OCC(C)C)c(C(=O)N[C@@H](C(=O)N[C@@H]3C(=O)N4[C@@H]3SC(C)(C)[C@@H]4C(=O)O)c3ccccc3)cnc2cc1COc1ccc(Cl)c(C)c1 [Beisp. 17]
Response: 6.25

Prompt: Output MIC of COc1ccc2ncc(C(=O)N[C@@H](C(=O)N[C@@H]3C(=O)N4[C@@H]3SC(C)(C)[C@@H]4C(=O)O)c3ccccc3)c(O)c2c1 [Beisp. 9]
Response: 0.39

Prompt: Output MIC of CCc1cc2c(OC(=O)OCC(C)C)c(C(=O)N[C@@H](C(=O)N[C@@H]3C(=O)N4[C@@H]3SC(C)(C)[C@@H]4C(=O)O)c3ccccc3)cnc2cc1CN1CCOCC1 [Beisp. 14]
Response: 0.78

* * *

For each entry below, report its MIC value.
Form entry: value (µM) — number only.

Prompt: GET MIC | system: Staphylococcus aureus | item: CCc1cc2c(OC(=O)OCC(C)C)c(C(=O)N[C@@H](C(=O)N[C@@H]3C(=O)N4[C@@H]3SC(C)(C)[C@@H]4C(=O)O)c3ccccc3)cnc2cc1COC(C)C [Beisp. 21]
Response: 12.5

Prompt: GET MIC | system: Staphylococcus aureus | item: COc1ccc2ncc(C(=O)N[C@@H](C(=O)N[C@@H]3C(=O)N4[C@@H]3SC(C)(C)[C@@H]4C(=O)O)c3ccccc3)c(O)c2c1 [Beisp. 9]
Response: 12.5

Prompt: GET MIC | system: Staphylococcus aureus | item: CCOC(=O)Oc1c(C(=O)N[C@@H](C(=O)N[C@@H]2C(=O)N3[C@@H]2SC(C)(C)[C@@H]3C(=O)O)c2ccccc2)cnc2cc(COc3ccc(Br)cc3)c(CC)cc12 [Beisp. 2]
Response: 25

Prompt: GET MIC | system: Staphylococcus aureus | item: CC(C)COC(=O)Oc1c(C(=O)N[C@@H](C(=O)N[C@@H]2C(=O)N3[C@@H]2SC(C)(C)[C@@H]3C(=O)O)c2ccccc2)cnc2ccc(C(C)C)cc12 [Beisp. 11]
Response: 25

Prompt: GET MIC | system: Staphylococcus aureus | item: CCCCOCc1cc2ncc(C(=O)N[C@@H](C(=O)N[C@@H]3C(=O)N4[C@@H]3SC(C)(C)[C@@H]4C(=O)O)c3ccccc3)c(OC(=O)OCC)c2cc1CC [Beisp. 4]
Response: 12.5

Prompt: GET MIC | system: Staphylococcus aureus | item: CCc1cc2c(OC(=O)OCC(C)C)c(C(=O)N[C@@H](C(=O)N[C@@H]3C(=O)N4[C@@H]3SC(C)(C)[C@@H]4C(=O)O)c3ccccc3)cnc2cc1COC [Beisp. 18]
Response: 0.39

Prompt: GET MIC | system: Staphylococcus aureus | item: CC1(C)S[C@@H]2[C@H](NC(=O)[C@H](N)c3ccccc3)C(=O)N2[C@H]1C(=O)O [Ampicillin, reference compound]
Response: 12.5
